Sourced from ChEMBL document CHEMBL1126023

- Tested On: Opioid receptors; mu/kappa/delta
- Run Description: In vitro inhibitory activity against opioid receptor in Guinea pig ileum
- Type: tissue-based, Cavia porcellus
Measured IC50, listed per entry for reference.
Assay Metric: IC50 (nM)

[[record]]
compound = "O=C1CC[C@H]2CN(CC3CC3)CCC2(c2cccc(O)c2)C1 (stereo partly drawn)"
recorded_number = 120

[[record]]
compound = "C=C1CC[C@H]2CN(CC3CC3)CCC2(c2cccc(O)c2)C1 (stereo partly drawn)"
recorded_number = 15

[[record]]
compound = "Oc1cccc(C23CC=CC[C@H]2CN(CC2CCC2)CC3)c1 (stereo partly drawn)"
recorded_number = 60

[[record]]
compound = "Oc1cccc(C23CCCC[C@H]2CN(CC2CC2)CC3)c1 (stereo partly drawn)"
recorded_number = 150

[[record]]
compound = "Oc1cccc(C23CC=CC[C@H]2CN(CC2CC2)CC3)c1 (stereo partly drawn)"
recorded_number = 90

[[record]]
compound = "C=C1CC[C@H]2CN(C)CCC2(c2cccc(O)c2)C1 (stereo partly drawn)"
recorded_number = 60

[[record]]
compound = "C=CCN1CCC2(c3cccc(O)c3)CC(=C)CC[C@H]2C1 (stereo partly drawn)"
recorded_number = 140

[[record]]
compound = "CN1CCC2(c3cccc(O)c3)CC=CC[C@H]2C1 (stereo partly drawn)"
recorded_number = 130


----------
- Tested On: Mu-type opioid receptor (Cavia porcellus) (UniProt P97266)
- Sequence (P97266 whole entry): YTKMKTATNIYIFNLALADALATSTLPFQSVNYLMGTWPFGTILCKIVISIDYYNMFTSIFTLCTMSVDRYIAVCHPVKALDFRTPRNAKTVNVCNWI
- Run Description: Dose ratio IC50 after beta-FNA (10e-6 M) 30 min pretreatment on guinea pig ileum and IC50 before beta-FNA treatment against opioid receptor mu in guinea pig ileum
- Type: tissue-based
Assay Metric: Dose ratio

[[record]]
molecule = "CN1CCC2(c3cccc(O)c3)CC=CC[C@H]2C1 (stereo partly drawn)"
value_operator = ">"
recorded_number = 30

[[record]]
molecule = "Oc1cccc(C23CC=CC[C@H]2CN(CC2CCC2)CC3)c1 (stereo partly drawn)"
value_operator = "="
recorded_number = 14.7

[[record]]
molecule = "C=CCN1CCC2(c3cccc(O)c3)CC(=C)CC[C@H]2C1 (stereo partly drawn)"
value_operator = "="
recorded_number = 3.3

[[record]]
molecule = "Oc1cccc(C23CC=CC[C@H]2CN(CC2CC2)CC3)c1 (stereo partly drawn)"
value_operator = "="
recorded_number = 2.3

[[record]]
molecule = "O=C1CC[C@H]2CN(CC3CC3)CCC2(c2cccc(O)c2)C1 (stereo partly drawn)"
value_operator = "="
recorded_number = 1.4

[[record]]
molecule = "Oc1cccc(C23CCCC[C@H]2CN(CC2CC2)CC3)c1 (stereo partly drawn)"
value_operator = "="
recorded_number = 2.8

[[record]]
molecule = "C=C1CC[C@H]2CN(CC3CC3)CCC2(c2cccc(O)c2)C1 (stereo partly drawn)"
value_operator = "="
recorded_number = 1.7

[[record]]
molecule = "C=C1CC[C@H]2CN(C)CCC2(c2cccc(O)c2)C1 (stereo partly drawn)"
value_operator = "="
recorded_number = 22

